# testTarget: C-C chemokine receptor type 2 (Homo sapiens) (UniProt P41597)
# Sequence (P41597 whole entry, looked up): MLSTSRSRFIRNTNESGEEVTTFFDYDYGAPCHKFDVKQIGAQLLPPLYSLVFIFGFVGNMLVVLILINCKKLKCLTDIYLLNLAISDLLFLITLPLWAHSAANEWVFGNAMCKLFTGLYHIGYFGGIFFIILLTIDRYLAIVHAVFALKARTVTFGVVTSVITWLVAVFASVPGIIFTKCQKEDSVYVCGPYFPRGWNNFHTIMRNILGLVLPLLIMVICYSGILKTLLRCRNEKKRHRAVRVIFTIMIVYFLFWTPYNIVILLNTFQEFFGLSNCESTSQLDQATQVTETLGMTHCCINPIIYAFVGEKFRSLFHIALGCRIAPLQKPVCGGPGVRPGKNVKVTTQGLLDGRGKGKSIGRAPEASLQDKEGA
# methodSummary: Antagonist activity at CCR2 in human THP1 cells assessed as inhibition of CCL2-induced chemotaxis at 1 nM after 2 hrs by microtiter format trans-well migration assay
# Format: functional, cell-based
# conditionSummary: THP-1
propertyName: inhibition (%)
Numbers only, in %.

Examples with answers:
# structure, unitsText, inhibition
data = [
    ("O=C1NCCCC[C@@H]1NC(=O)C12CC3CC(CC(C3)C1)C2", "%", 99),
    ("CCCCCCCCCCC(C)(C)C(=O)N[C@@H]1CCCCNC1=O", "%", 36),
    ("O=C1NCCCC[C@H]1NC(=O)C12CC3CC(CC(C3)C1)C2", "%", 46),
    ("CCCCCCCCCCC(C)(C)C(=O)N[C@H]1CCCCNC1=O", "%", 81),
    ("CC(C)(C)C(=O)N[C@H]1CCCCNC1=O", "%", 101),
]

Now examine the next entry.
Write down the reported inhibition of "CC1(C(=O)N[C@H]2CCCCNC2=O)CCCCC1" , test system: C-C chemokine receptor type 2 (Homo sapiens) (UniProt P41597).
98

The measurements presented in this section are drawn from ChEMBL document CHEMBL1136923.
